Listing of pKi toward Melatonin receptor type 1B (Homo sapiens), each taken from a published source.
pKi: −log10 of the molar value.
recorded_endpoint: pKi

Take a look at these entries with their results.
1) CCC(=O)NCCn1ccc2ccc(OC)nc21
9.55
2) CCC(=O)NC[C@@H]1CC1c1cccc2oc(CCCCc3ccccc3)cc12 (some centres not stated)
8.55
3) CCC(=O)NCCc1cc2c(OC)cccc2n1Cc1ccccc1
7.75
4) CCC(=O)NC1Cc2ccccc2N(Cc2ccccc2)C1 (racemic)
8.22
5) COc1cccc(OCCNC(C)=O)c1
7.90
6) COc1ccc2cccc3c2c1C(CNC(C)=O)CC3 (configuration not stated)
10.03

P = CCC(=O)NCCc1c(OCCO)ccc2ccc(OC)cc12
Q = COC(=O)c1ccc(-c2ccc(OCCCCOc3ccc4cccc(CCNC(C)=O)c4c3)cc2)cc1
R = CCC(=O)N[C@H]1CCN(c2cccc3c2CCO3)C1
S = CCCC(=O)NCCCc1cccc2nc(C)oc12
T = CC(C)C(=O)N[C@H]1CCN(c2cccc3c2CCO3)C1
Descending sort on pKi required. Put the labels in the requested order and list them out. R, P, S, T, Q
